5-hydroxytryptamine receptor 6 (Homo sapiens) AC50 data; also: assay procedure not described here
Sequence (P50406 whole entry): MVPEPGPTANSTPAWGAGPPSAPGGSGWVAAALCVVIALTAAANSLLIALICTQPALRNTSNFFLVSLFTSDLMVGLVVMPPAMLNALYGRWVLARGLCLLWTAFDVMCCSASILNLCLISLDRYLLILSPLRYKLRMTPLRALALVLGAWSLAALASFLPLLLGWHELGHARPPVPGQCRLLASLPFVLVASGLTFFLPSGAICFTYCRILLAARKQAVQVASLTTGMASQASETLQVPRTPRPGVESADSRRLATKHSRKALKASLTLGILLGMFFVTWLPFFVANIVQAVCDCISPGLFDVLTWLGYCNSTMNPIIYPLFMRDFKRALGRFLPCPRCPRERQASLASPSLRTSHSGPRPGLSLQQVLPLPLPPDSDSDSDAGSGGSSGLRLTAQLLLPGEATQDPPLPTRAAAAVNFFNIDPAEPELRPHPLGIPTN
measure: AC50

>>> df
                                   compound                                systemname  datavalue
0  Cc1cnc(NC(=O)C2=C(O)c3ccccc3S(=O)(=O)N2C)s1 [MELOXICAM]  5-hydroxytryptamine receptor 6 (Homo sapiens)    > 10 µM
1  CC(CCc1ccccc1)NC(C)C(O)c1ccc(O)cc1 (stereo not drawn) [NYLIDRIN]  5-hydroxytryptamine receptor 6 (Homo sapiens)    > 10 µM
2  O=C1Nc2ccc(Cl)cc2C(c2ccccc2)=NC1O (stereo not drawn) [OXAZEPAM]  5-hydroxytryptamine receptor 6 (Homo sapiens)    > 10 µM
